# Test protocol: Half life in monkey liver microsomes
# Type: ADME, Macaca mulatta
# Condition: rhesus monkey
Measurement label: half-life

- Mol: "CC(C)c1cc(N2CC[C@@H](N)C2)nc(N)n1"
  Result: "> 2 h"

* * *

# Test protocol: Cmax in Sprague-Dawley rat at 10 mg/kg, po
# Type: ADME, organism-based
# Parameters: dose 10 mg/kg, route oral
# Condition: in vivo
As shown below, each of these compounds has a reported Cmax value.

- Mol: "Nc1nc(C2CCCC2)cc(N2CCNCC2)n1"
  Cmax / nM: 600
- Mol: "CN[C@@H]1CCN(c2cc(Cc3ccccc3)nc(N)n2)C1"
  Cmax / nM: 1600
- Mol: "CC(C)c1cc(N2CC[C@@H](N)C2)nc(N)n1"
  Cmax / nM: 260

* * *

# Target or system: UniProt Q91ZY3
# Sequence (Q91ZY3 whole entry): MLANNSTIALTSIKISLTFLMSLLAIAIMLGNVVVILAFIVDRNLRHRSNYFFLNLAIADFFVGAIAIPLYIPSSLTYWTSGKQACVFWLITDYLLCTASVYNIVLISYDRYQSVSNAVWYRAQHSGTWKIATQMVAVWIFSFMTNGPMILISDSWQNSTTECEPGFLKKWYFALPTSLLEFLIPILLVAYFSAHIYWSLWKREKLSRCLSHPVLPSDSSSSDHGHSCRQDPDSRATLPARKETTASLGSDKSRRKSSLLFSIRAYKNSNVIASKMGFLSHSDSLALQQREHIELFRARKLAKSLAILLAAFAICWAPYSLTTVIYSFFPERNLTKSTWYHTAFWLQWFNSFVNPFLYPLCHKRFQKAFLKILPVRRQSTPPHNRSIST
pKi: −log10 of the molar value.
Measurement label: pKi

- Compound: "CC(C)c1cc(N2CC[C@@H](N)C2)nc(N)n1 [JNJ-39758979]"
  Target or system: "UniProt Q91ZY3"
  Measurement label: "pKi"
  Numeric result: 6.51

* * *

# Test protocol: AUC in Sprague-Dawley rat at 10 mg/kg, po
# Type: ADME, organism-based
# Set-up: dose 10 mg/kg, route oral
# Condition: plasma
As shown below, each of these molecules has a reported AUC value.

- Mol: "CN[C@@H]1CCN(c2cc(Cc3ccccc3)nc(N)n2)C1"
  AUC (µM·h): 27.8
- Mol: "Nc1nc(C2CCCC2)cc(N2CCNCC2)n1"
  AUC (µM·h): 8.2
- Mol: "CC(C)c1cc(N2CC[C@@H](N)C2)nc(N)n1"
  AUC (µM·h): 2.43

* * *

# Test protocol: AUC in Balb/c mouse at 5 mg/kg, po
# Type: ADME, organism-based
# Set-up: dose 5 mg/kg, route oral
# Condition: plasma

- Mol: "CC(C)c1cc(N2CC[C@@H](N)C2)nc(N)n1"
  Measurement unit: "µM·h"
  AUC: 9.69

* * *

# Test protocol: Half life in Sprague-Dawley rat at 10 mg/kg, po
# Type: ADME, organism-based
# Set-up: dose 10 mg/kg, route oral
# Condition: in vivo
As shown below, each of these compounds has a reported half-life value.
Measurement label: half-life

- Mol: "Nc1nc(C2CCCC2)cc(N2CCNCC2)n1"
  Result: "8.7 h"
- Mol: "CC(C)c1cc(N2CC[C@@H](N)C2)nc(N)n1"
  Result: "5.7 h"
- Mol: "CN[C@@H]1CCN(c2cc(Cc3ccccc3)nc(N)n2)C1"
  Result: "9.3 h"

* * *

# Test protocol: Tmax in Balb/c mouse at 5 mg/kg, po
# Assay type: ADME, organism-based
# Set-up: dose 5 mg/kg, route oral
# Condition: in vivo

- Mol: "CC(C)c1cc(N2CC[C@@H](N)C2)nc(N)n1"
  Tmax / h: 2

* * *

# Test protocol: Volume of distribution at steady state in Balb/c mouse at 2 mg/kg, iv
# Format: ADME, organism-based
# Design: dose 2 mg/kg, route intravenous
# Condition: in vivo, read-out: Vdss

- Mol: "CC(C)c1cc(N2CC[C@@H](N)C2)nc(N)n1"
  Measurement unit: "L/kg"
  Vd: 31

* * *

# Test protocol: Ratio of drug level in liver to plasma in mouse at 5 mg/kg, po administered as single dose […] by LC-MS/MS analysis
# Type: ADME, organism-based
# Set-up: dose 5 mg/kg, route oral
Measurement label: Kp

- Mol: "CC(C)c1cc(N2CC[C@@H](N)C2)nc(N)n1"
  Numeric result: 23.2

* * *

# Test protocol: Binding affinity to monkey histamine H4 receptor
# Design: species or system Macaca mulatta

- Mol: "CC(C)c1cc(N2CC[C@@H](N)C2)nc(N)n1"
  Ki / µM: 0.025

* * *

# Target or system: hERG (KCNH2) (Homo sapiens, UniProt Q12809)
# Sequence (Q12809 whole entry): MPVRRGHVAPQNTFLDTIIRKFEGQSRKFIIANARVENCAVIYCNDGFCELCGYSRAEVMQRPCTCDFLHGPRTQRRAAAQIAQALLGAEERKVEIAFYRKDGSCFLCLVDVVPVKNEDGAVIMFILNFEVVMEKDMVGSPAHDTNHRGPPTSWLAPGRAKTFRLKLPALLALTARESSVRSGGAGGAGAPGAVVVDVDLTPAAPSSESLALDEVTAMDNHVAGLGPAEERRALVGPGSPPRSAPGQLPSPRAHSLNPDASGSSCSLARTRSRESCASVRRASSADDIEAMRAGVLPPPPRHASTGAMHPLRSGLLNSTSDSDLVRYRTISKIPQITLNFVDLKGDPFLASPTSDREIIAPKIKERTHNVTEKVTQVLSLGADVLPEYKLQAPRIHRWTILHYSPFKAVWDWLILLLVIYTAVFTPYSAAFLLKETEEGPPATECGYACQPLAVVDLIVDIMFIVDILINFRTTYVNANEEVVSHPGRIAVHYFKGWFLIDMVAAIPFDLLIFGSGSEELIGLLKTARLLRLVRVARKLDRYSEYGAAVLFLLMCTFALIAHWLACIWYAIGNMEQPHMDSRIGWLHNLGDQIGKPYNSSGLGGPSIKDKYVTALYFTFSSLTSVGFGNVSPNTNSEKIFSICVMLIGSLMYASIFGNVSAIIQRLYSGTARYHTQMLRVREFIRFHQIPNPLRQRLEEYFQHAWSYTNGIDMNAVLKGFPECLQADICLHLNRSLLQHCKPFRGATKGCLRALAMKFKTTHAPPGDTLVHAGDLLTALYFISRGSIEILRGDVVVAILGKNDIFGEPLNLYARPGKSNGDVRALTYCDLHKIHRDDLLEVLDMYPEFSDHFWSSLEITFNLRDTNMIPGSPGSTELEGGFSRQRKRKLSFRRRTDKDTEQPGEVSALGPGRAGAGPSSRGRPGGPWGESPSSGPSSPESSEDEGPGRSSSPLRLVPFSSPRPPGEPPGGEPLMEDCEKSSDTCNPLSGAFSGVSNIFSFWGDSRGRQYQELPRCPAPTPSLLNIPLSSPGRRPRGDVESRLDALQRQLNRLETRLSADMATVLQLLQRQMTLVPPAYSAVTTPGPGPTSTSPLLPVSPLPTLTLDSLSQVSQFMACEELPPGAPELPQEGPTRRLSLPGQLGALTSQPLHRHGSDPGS
# Test protocol: Inhibition of human ERG channel transfected in HEK293 cells assessed as reduction in delayed rectifier current at 3 uM by patch clamp assay
# Format: cell-based
# Condition: HEK293 cells transfected with human ERG channel
Measurement label: inhibition at 3 µM

- Mol: "Nc1nc(C2CCCC2)cc(N2CCNCC2)n1"
  Result: "21%"

* * *

# Test protocol: AUC in rat at 2 mg/kg, iv
# Type: ADME, organism-based
# Set-up: dose 2 mg/kg, route intravenous
# Condition: plasma

- Mol: "CCc1cc(N2CC[C@@H](NC)C2)nc(N)n1"
  AUC, µM·h: 11
- Mol: "Nc1nc(C2CCCC2)cc(N2CCNCC2)n1"
  AUC, µM·h: 5
- Mol: "CC(C)c1cc(N2CC[C@@H](N)C2)nc(N)n1"
  AUC, µM·h: 1.4

* * *

# Test protocol: Fraction unbound in human plasma
# Assay type: ADME, cell-free

- Compound: "CCc1cc(N2CC[C@@H](NC)C2)nc(N)n1"
  fraction unbound: 0.26
- Compound: "CC(C)c1cc(N2CC[C@@H](N)C2)nc(N)n1 [JNJ-39758979]"
  fraction unbound: 0.81

* * *

# Test protocol: Oral bioavailability in Balb/c mouse at 20 mg/kg
# Type: ADME, organism-based
# Condition: in vivo

- Mol: "CC(C)c1cc(N2CC[C@@H](N)C2)nc(N)n1"
  Measurement unit: "%"
  bioavailability: 75

* * *

# Test protocol: Half life in mouse liver at 5 mg/kg, po administered as single dose by LC-MS/MS analysis
# Format: ADME, organism-based
# Design: dose 5 mg/kg, route oral
Measurement label: half-life (h)

- Mol: "CC(C)c1cc(N2CC[C@@H](N)C2)nc(N)n1"
  Measurement unit: "h"
  Numeric result: 22.3

* * *

# Test protocol: Half life in Sprague-Dawley rat at 2 mg/kg, iv
# Type: ADME, organism-based
# Parameters: dose 2 mg/kg, route intravenous
# Condition: Sprague-Dawley, in vivo

- Mol: "CC(C)c1cc(N2CC[C@@H](N)C2)nc(N)n1"
  Measurement unit: "h"
  half-life: 2.1

* * *

# Test protocol: Oral bioavailability in Balb/c mouse at 5 mg/kg
# Type: ADME, organism-based
# Condition: in vivo

- Mol: "CC(C)c1cc(N2CC[C@@H](N)C2)nc(N)n1"
  bioavailability: "84%"

* * *

# Test protocol: AUC in beagle dog at 2 mg/kg, iv
# Type: ADME, organism-based, Canis lupus familiaris, Plasma
# Design: dose 2 mg/kg, route intravenous
# Condition: beagle, plasma

- Mol: "CC(C)c1cc(N2CC[C@@H](N)C2)nc(N)n1"
  Measurement unit: "µM·h"
  AUC: 6.7

* * *

# Target or system: Histamine H4 receptor (Homo sapiens, UniProt Q9H3N8)
# Sequence (Q9H3N8 whole entry): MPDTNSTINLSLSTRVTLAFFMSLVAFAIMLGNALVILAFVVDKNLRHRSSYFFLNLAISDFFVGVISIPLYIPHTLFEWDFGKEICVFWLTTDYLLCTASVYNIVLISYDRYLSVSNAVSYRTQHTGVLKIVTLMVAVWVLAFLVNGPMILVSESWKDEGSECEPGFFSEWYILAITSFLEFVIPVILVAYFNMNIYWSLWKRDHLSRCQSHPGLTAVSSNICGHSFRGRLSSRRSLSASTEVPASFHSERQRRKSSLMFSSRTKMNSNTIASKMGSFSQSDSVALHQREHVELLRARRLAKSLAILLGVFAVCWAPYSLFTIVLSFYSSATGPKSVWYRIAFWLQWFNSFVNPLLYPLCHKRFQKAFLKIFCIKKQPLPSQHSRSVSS
# Test protocol: Agonist activity at human H4 receptor
Measurement label: EC50

- Mol: "CC(C)c1cc(N2CC[C@@H](N)C2)nc(N)n1"
  Result: "> 10 µM"

* * *

# Target or system: Histamine H3 receptor (Homo sapiens, UniProt Q9Y5N1)
# Sequence (Q9Y5N1 whole entry): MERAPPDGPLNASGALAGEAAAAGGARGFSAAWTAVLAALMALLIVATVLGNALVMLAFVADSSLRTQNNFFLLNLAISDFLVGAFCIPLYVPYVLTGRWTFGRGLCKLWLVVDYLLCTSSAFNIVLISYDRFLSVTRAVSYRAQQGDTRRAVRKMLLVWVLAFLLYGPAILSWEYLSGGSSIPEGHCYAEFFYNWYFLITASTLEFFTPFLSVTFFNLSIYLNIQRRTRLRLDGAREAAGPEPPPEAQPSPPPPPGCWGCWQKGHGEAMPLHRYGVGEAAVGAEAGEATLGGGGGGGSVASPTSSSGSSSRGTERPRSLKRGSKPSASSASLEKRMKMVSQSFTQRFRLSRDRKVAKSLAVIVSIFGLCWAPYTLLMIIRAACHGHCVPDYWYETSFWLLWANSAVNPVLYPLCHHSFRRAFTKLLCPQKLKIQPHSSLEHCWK
# Test protocol: Displacement of [3H]N-alpha-methylhistamine from human recombinant histamine H3 receptor expressed in SK-N-MC cells after 45 mins by competition binding analysis
pKi: −log10 of the molar value.

- Mol: "CCc1cc(N2CC[C@@H](NC)C2)nc(N)n1"
  pKi: 6.17
- Mol: "Nc1nc(C2CCCC2)cc(N2CCNCC2)n1"
  pKi: 7.62
- Mol: "CC(C)c1cc(N2CC[C@@H](N)C2)nc(N)n1"
  pKi: 5.98

* * *

# Target or system: Histamine H4 receptor (Mus musculus, UniProt Q91ZY2)
# Sequence (Q91ZY2 whole entry): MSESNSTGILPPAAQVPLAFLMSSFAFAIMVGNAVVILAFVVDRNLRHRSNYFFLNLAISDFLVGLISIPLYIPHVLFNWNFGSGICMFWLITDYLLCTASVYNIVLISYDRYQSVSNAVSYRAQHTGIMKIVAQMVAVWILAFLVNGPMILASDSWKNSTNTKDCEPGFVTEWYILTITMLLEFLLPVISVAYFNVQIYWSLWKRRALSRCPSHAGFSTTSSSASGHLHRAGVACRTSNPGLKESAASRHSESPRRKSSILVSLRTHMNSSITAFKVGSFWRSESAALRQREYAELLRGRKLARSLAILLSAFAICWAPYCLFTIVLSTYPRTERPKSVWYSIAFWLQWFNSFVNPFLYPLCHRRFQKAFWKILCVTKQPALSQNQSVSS
# Test protocol: Partial agonist activity at mouse histamine H4 receptor
pEC50: −log10 of the molar value.

- Mol: "Nc1nc(C2CCCC2)cc(N2CCNCC2)n1"
  Target or system: "Histamine H4 receptor (Mus musculus, UniProt Q91ZY2)"
  pEC50: 8.14

* * *

# Test protocol: Fraction unbound in mouse plasma
# Assay type: ADME, cell-free

- Compound: "CC(C)c1cc(N2CC[C@@H](N)C2)nc(N)n1 [JNJ-39758979]"
  fraction unbound: 0.76
